# Tested on: 186277-243-T-J2-PDC complex spheroids, viability;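 further: spheroids exposed to compounds for 7 days before viability read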
# Assay remarks: Anticancer human tumor 186277-243-T-J2-PDC patient-derived colon adenocarcinoma cell line growth inhibition [RAS]
# Condition notes: second compound 0.316 µM; first compound 0.1 µM; hits give low values
# label = label 1 if viability, T/C < 40% else label 0

>  <Compound>
CC(=O)OC12COC1CC(O)C1(C)C(=O)C(O)C3=C(C)C(OC(=O)C(O)C(NC(=O)OC(C)(C)C)c4ccccc4)CC(O)(C(OC(=O)c4ccccc4)C21)C3(C)C (centres undefined) + C#Cc1c(F)ccc2cc(O)cc(-c3ncc4c(N5CC6CCC(C5)N6)nc(OCC56CCCN5CC(F)C6)nc4c3F)c12

>  <Label value>
label 1

$$$$

Request: # strict comparison: is reported viability, T/C < 40%? input = CC(C)NCC(C(=O)N1CCN(c2ncnc3c2C(C)CC3O)CC1)c1ccc(Cl)cc1 (centres undefined) + C=CC(=O)N1CCN(c2nc(OCC3CCCN3C)nc3c(F)c(-c4nc(N)cc(C)c4C(F)(F)F)c(Cl)cc23)C(C)C1
Result: label 0

Request: Please state whether viability, T/C is below 40% for CC(C)n1nc(-c2ccc3oc(N)nc3c2)c2c(N)ncnc21 + C=CC(=O)N1CCN(c2nc(OCC3CCCN3C)nc3c(F)c(-c4nc(N)cc(C)c4C(F)(F)F)c(Cl)cc23)C(C)C1
Result: label 0

Request: Consider the compound C[C@@H](NC(=O)c1ncnc(N)c1Cl)c1ncc(C(=O)Nc2cc(C(F)(F)F)c(Cl)cn2)s1 + C#Cc1c(F)ccc2cc(O)cc(-c3ncc4c(N5CC6CCC(C5)N6)nc(OCC56CCCN5CC(F)C6)nc4c3F)c12 . Is its viability, T/C strictly less than 40%?
Result: label 0

Request: Is 40% strictly greater than the compound's reported viability, T/C? compound: CC(=O)OC12COC1CC(O)C1(C)C(=O)C(O)C3=C(C)C(OC(=O)C(O)C(NC(=O)OC(C)(C)C)c4ccccc4)CC(O)(C(OC(=O)c4ccccc4)C21)C3(C)C (centres undefined) + C=CC(=O)N1CCN(c2nc(OCC3CCCN3C)nc3c(F)c(-c4nc(N)cc(C)c4C(F)(F)F)c(Cl)cc23)C(C)C1
Result: label 1

Request: Regarding C[C@@H](NC(=O)c1ncnc(N)c1Cl)c1ncc(C(=O)Nc2cc(C(F)(F)F)c(Cl)cn2)s1 + C=CC(=O)N1CCN(c2nc(OCC3CCCN3C)nc3c(F)c(-c4nc(N)cc(C)c4C(F)(F)F)c(Cl)cc23)C(C)C1 , kindly confirm whether its viability, T/C is beneath 40%.
Result: label 0

Request: Could you please tell me whether viability, T/C recorded for CC1(O)CCCC1n1c(=O)c(C(F)F)cc2cnc(NC3CCN(S(C)(=O)=O)CC3)nc21 (centres undefined) + C=CC(=O)N1CCN(c2nc(OCC3CCCN3C)nc3c(F)c(-c4nc(N)cc(C)c4C(F)(F)F)c(Cl)cc23)C(C)C1 is less than 40%?
Result: label 0

Request: Lab note: viability, T/C threshold 40%. Does this compound come in strictly under it? CCC(CC)c1cc(NC2CCC(N)C2)n2nccc2n1 (centres undefined) + C=CC(=O)N1CCN(c2nc(OCC3CCCN3C)nc3c(F)c(-c4nc(N)cc(C)c4C(F)(F)F)c(Cl)cc23)C(C)C1
Result: label 0

Request: is_below(viability, T/C, 40%) for Nc1ccn(C2OC(CO)C(O)C2(F)F)c(=O)n1 (centres undefined) + C#Cc1c(F)ccc2cc(O)cc(-c3ncc4c(N5CC6CCC(C5)N6)nc(OCC56CCCN5CC(F)C6)nc4c3F)c12 ?
Result: label 1

Request: Given the entry O=C(c1ccc(F)c(F)c1Nc1ccc(I)cc1F)N1CC(O)([C@@H]2CCCCN2)C1 + C#Cc1c(F)ccc2cc(O)cc(-c3ncc4c(N5CC6CCC(C5)N6)nc(OCC56CCCN5CC(F)C6)nc4c3F)c12 , would its reported viability, T/C be below 40%?
Result: label 1

Request: Criterion: viability, T/C strictly below 40%. Is it met by O=C(c1ccc(F)c(F)c1Nc1ccc(I)cc1F)N1CC(O)([C@@H]2CCCCN2)C1 + C=CC(=O)N1CCN(c2nc(OCC3CCCN3C)nc3c(F)c(-c4nc(N)cc(C)c4C(F)(F)F)c(Cl)cc23)C(C)C1 ?
Result: label 1

Request: For this compound, is viability, T/C lower than 40%? NC1c2ccccc2OC12CCN(c1cnc3c(N4CCCc5ncccc54)n[nH]c3n1)CC2 (centres undefined) + C=CC(=O)N1CCN(c2nc(OCC3CCCN3C)nc3c(F)c(-c4nc(N)cc(C)c4C(F)(F)F)c(Cl)cc23)C(C)C1
Result: label 0

Request: Item CC(Nc1ccc2c(c1)OCCn1cc(N3C(=O)OCC3C(F)F)nc1-2)C(N)=O (centres undefined) + C=CC(=O)N1CCN(c2nc(OCC3CCCN3C)nc3c(F)c(-c4nc(N)cc(C)c4C(F)(F)F)c(Cl)cc23)C(C)C1 : viability, T/C beneath 40%, strictly?
Result: label 0

Request: Report whether reported viability, T/C is lower than 40% (strictly) for Nc1ccn(C2OC(CO)C(O)C2(F)F)c(=O)n1 (centres undefined) + C=CC(=O)N1CCN(c2nc(OCC3CCCN3C)nc3c(F)c(-c4nc(N)cc(C)c4C(F)(F)F)c(Cl)cc23)C(C)C1
Result: label 1

Request: Regarding C=CC(=O)Nc1cc(Nc2nccc(-c3cn(C)c4ccccc34)n2)c(OC)cc1N(C)CCN(C)C + C=CC(=O)N1CCN(c2nc(OCC3CCCN3C)nc3c(F)c(-c4nc(N)cc(C)c4C(F)(F)F)c(Cl)cc23)C(C)C1 , kindly confirm whether its viability, T/C is beneath 40%.
Result: label 0

Request: Problem: For the compound NC1c2ccccc2OC12CCN(c1cnc3c(N4CCCc5ncccc54)n[nH]c3n1)CC2 (centres undefined) + C#Cc1c(F)ccc2cc(O)cc(-c3ncc4c(N5CC6CCC(C5)N6)nc(OCC56CCCN5CC(F)C6)nc4c3F)c12 , is viability, T/C under 40%?
Result: label 1

Request: Take the compound CC(C)n1nc(-c2ccc3oc(N)nc3c2)c2c(N)ncnc21 + C#Cc1c(F)ccc2cc(O)cc(-c3ncc4c(N5CC6CCC(C5)N6)nc(OCC56CCCN5CC(F)C6)nc4c3F)c12 and say whether its viability, T/C is less than 40%.
Result: label 1

Request: Does this compound meet the criterion viability, T/C < 40%? CC(C)NCC(C(=O)N1CCN(c2ncnc3c2C(C)CC3O)CC1)c1ccc(Cl)cc1 (centres undefined) + C#Cc1c(F)ccc2cc(O)cc(-c3ncc4c(N5CC6CCC(C5)N6)nc(OCC56CCCN5CC(F)C6)nc4c3F)c12
Result: label 1
